Sourced from PubChem BioAssay AID1963983

Test system: 186277-243-T-J2-PDC multi-cell spheroid viability
Experiment: Anticancer human tumor 186277-243-T-J2-PDC patient-derived colon adenocarcinoma cell line growth inhibition [PI3K]
Conditions: second compound 0.00316 µM; first compound 0.1 µM; hits give low values
# Lookup of reported viability, T/C keyed by entry

molecule	viability, T/C
Cn1nccc1Nc1nccc(-c2ccn(C(CO)c3ccc(Cl)c(F)c3)c(=O)c2)n1 (stereo not drawn) + COc1c(OCCCN2CCOCC2)ccc2c3n(c(=NC(=O)c4cnc(N)nc4)nc12)CCN3	107%
CC(=O)c1c(C)c2cnc(Nc3ccc(N4CCNCC4)cn3)nc2n(C2CCCC2)c1=O + CC(Nc1ccc2c(c1)OCCn1cc(N3C(=O)OCC3C(F)F)nc1-2)C(N)=O	137%
CC(=O)c1c(C)c2cnc(Nc3ccc(N4CCNCC4)cn3)nc2n(C2CCCC2)c1=O + COc1c(OCCCN2CCOCC2)ccc2c3n(c(=NC(=O)c4cnc(N)nc4)nc12)CCN3	113%

* * *

Recorded viability, T/C by entry
System: 186277-243-T-J2-PDC multi-cell spheroid viability
Experiment: Anticancer human tumor 186277-243-T-J2-PDC cell line growth inhibition [PI3K];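 note: spheroids exposed to compounds for seven days before viability reading; 100% = DMSO vehicle control viability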
Conditions: second compound 0.01 µM; first compound 3.16 µM; hits give low values

compound	viability, T/C
C=CC(=O)N1CCN(c2nc(=O)n(-c3c(C)ccnc3C(C)C)c3nc(-c4c(O)cccc4F)c(F)cc23)C(C)C1 (stereo not given) + CC(Nc1ccc2c(c1)OCCn1cc(N3C(=O)OCC3C(F)F)nc1-2)C(N)=O	103%
Cn1nccc1Nc1nccc(-c2ccn(C(CO)c3ccc(Cl)c(F)c3)c(=O)c2)n1 (stereo not given) + CC(Nc1ccc2c(c1)OCCn1cc(N3C(=O)OCC3C(F)F)nc1-2)C(N)=O	33.5%
CC(C)NCC(C(=O)N1CCN(c2ncnc3c2C(C)CC3O)CC1)c1ccc(Cl)cc1 (stereo not given) + COc1c(OCCCN2CCOCC2)ccc2c3n(c(=NC(=O)c4cnc(N)nc4)nc12)CCN3	20.6%
CC1(C)CCC(CN2CCN(c3ccc(C(=O)NS(=O)(=O)c4ccc(NCC5CCOCC5)c([N+](=O)[O-])c4)c(Oc4cnc5[nH]ccc5c4)c3)CC2)=C(c2ccc(Cl)cc2)C1 + COc1c(OCCCN2CCOCC2)ccc2c3n(c(=NC(=O)c4cnc(N)nc4)nc12)CCN3	82.6%
CC1(C)CCC(Nc2ncc(C(F)(F)F)c(-c3c[nH]c4c(P(C)(C)=O)c(C#N)ccc34)n2)CN1 (stereo not given) + COc1c(OCCCN2CCOCC2)ccc2c3n(c(=NC(=O)c4cnc(N)nc4)nc12)CCN3	40.6%

* * *

Tested on: 186277-243-T-J2-PDC multi-cell spheroid viability
Experiment: Anticancer human tumor 186277-243-T-J2-PDC cell line growth inhibition [PI3K];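 note: spheroids exposed to compounds for seven days before viability reading; 100% = DMSO vehicle control viability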
Details: second compound 0.00316 µM; first compound 3.16 µM; hits give low values
Excerpt: Combinatorial screen of targeted agents with the PI3K inhibitors inavolisib, alpelisib, duvelisib, and copanlisib in multi-cell type tumor spheroids A high-throughput screen of multi-cell type tumor spheroids was designed to identify active combinations of targeted small molecules and PI3K pathway inhibitors. […] Compounds. […] If the clinical Cmax for an agent had not been determined, the highest concentration tested was 10 microM. […]

compound	unit.abbrev	viability, T/C
CC1(C)CCC(Nc2ncc(C(F)(F)F)c(-c3c[nH]c4c(P(C)(C)=O)c(C#N)ccc34)n2)CN1 (configuration not stated) + COc1c(OCCCN2CCOCC2)ccc2c3n(c(=NC(=O)c4cnc(N)nc4)nc12)CCN3	%	56.2
CC(C)NCC(C(=O)N1CCN(c2ncnc3c2C(C)CC3O)CC1)c1ccc(Cl)cc1 (configuration not stated) + CC(Nc1ccc2c(c1)OCCn1cc(N3C(=O)OCC3C(F)F)nc1-2)C(N)=O	%	39.6
CCCS(=O)(=O)Nc1ccc(F)c(C(=O)c2c[nH]c3ncc(-c4ccc(Cl)cc4)cc23)c1F + COc1c(OCCCN2CCOCC2)ccc2c3n(c(=NC(=O)c4cnc(N)nc4)nc12)CCN3	%	79.4
C=CC(=O)N1CCN(c2nc(=O)n(-c3c(C)ccnc3C(C)C)c3nc(-c4c(O)cccc4F)c(F)cc23)C(C)C1 (configuration not stated) + COc1c(OCCCN2CCOCC2)ccc2c3n(c(=NC(=O)c4cnc(N)nc4)nc12)CCN3	%	93.2
C[C@@H](NC(=O)c1ncnc(N)c1Cl)c1ncc(C(=O)Nc2cc(C(F)(F)F)c(Cl)cn2)s1 + CC(Nc1ccc2c(c1)OCCn1cc(N3C(=O)OCC3C(F)F)nc1-2)C(N)=O	%	113
CC1(C)CCC(CN2CCN(c3ccc(C(=O)NS(=O)(=O)c4ccc(NCC5CCOCC5)c([N+](=O)[O-])c4)c(Oc4cnc5[nH]ccc5c4)c3)CC2)=C(c2ccc(Cl)cc2)C1 + CC(Nc1ccc2c(c1)OCCn1cc(N3C(=O)OCC3C(F)F)nc1-2)C(N)=O	%	71.2
Cn1nccc1Nc1nccc(-c2ccn(C(CO)c3ccc(Cl)c(F)c3)c(=O)c2)n1 (configuration not stated) + CC(Nc1ccc2c(c1)OCCn1cc(N3C(=O)OCC3C(F)F)nc1-2)C(N)=O	%	37.2
CC(Cn1ccc(-c2ccc(C#N)c(Cl)c2)n1)NC(=O)c1cc(C(C)O)[nH]n1 (configuration not stated) + COc1c(OCCCN2CCOCC2)ccc2c3n(c(=NC(=O)c4cnc(N)nc4)nc12)CCN3	%	116
Cn1ncc(Cl)c1-c1cc(C(=O)NC(CN)Cc2cccc(F)c2)sc1Cl (configuration not stated) + COc1c(OCCCN2CCOCC2)ccc2c3n(c(=NC(=O)c4cnc(N)nc4)nc12)CCN3	%	20.4
CC(C)NCC(C(=O)N1CCN(c2ncnc3c2C(C)CC3O)CC1)c1ccc(Cl)cc1 (configuration not stated) + COc1c(OCCCN2CCOCC2)ccc2c3n(c(=NC(=O)c4cnc(N)nc4)nc12)CCN3	%	30.9
CNC(=O)c1ccc(N2C(=S)N(c3ccc(C#N)c(C(F)(F)F)c3)C(=O)C2(C)C)cc1F + CC(Nc1ccc2c(c1)OCCn1cc(N3C(=O)OCC3C(F)F)nc1-2)C(N)=O	%	109
Cn1nccc1Nc1nccc(-c2ccn(C(CO)c3ccc(Cl)c(F)c3)c(=O)c2)n1 (configuration not stated) + COc1c(OCCCN2CCOCC2)ccc2c3n(c(=NC(=O)c4cnc(N)nc4)nc12)CCN3	%	24.3
CC1(C)CCC(CN2CCN(c3ccc(C(=O)NS(=O)(=O)c4ccc(NCC5CCOCC5)c([N+](=O)[O-])c4)c(Oc4cnc5[nH]ccc5c4)c3)CC2)=C(c2ccc(Cl)cc2)C1 + COc1c(OCCCN2CCOCC2)ccc2c3n(c(=NC(=O)c4cnc(N)nc4)nc12)CCN3	%	93
CC(Cn1ccc(-c2ccc(C#N)c(Cl)c2)n1)NC(=O)c1cc(C(C)O)[nH]n1 (configuration not stated) + CC(Nc1ccc2c(c1)OCCn1cc(N3C(=O)OCC3C(F)F)nc1-2)C(N)=O	%	93.6
CC1(C)CCC(Nc2ncc(C(F)(F)F)c(-c3c[nH]c4c(P(C)(C)=O)c(C#N)ccc34)n2)CN1 (configuration not stated) + CC(Nc1ccc2c(c1)OCCn1cc(N3C(=O)OCC3C(F)F)nc1-2)C(N)=O	%	56.6
CNC(=O)c1ccc(N2C(=S)N(c3ccc(C#N)c(C(F)(F)F)c3)C(=O)C2(C)C)cc1F + COc1c(OCCCN2CCOCC2)ccc2c3n(c(=NC(=O)c4cnc(N)nc4)nc12)CCN3	%	112
C=CC(=O)N1CCN(c2nc(=O)n(-c3c(C)ccnc3C(C)C)c3nc(-c4c(O)cccc4F)c(F)cc23)C(C)C1 (configuration not stated) + CC(Nc1ccc2c(c1)OCCn1cc(N3C(=O)OCC3C(F)F)nc1-2)C(N)=O	%	109
C#Cc1c(F)ccc2cc(O)cc(-c3ncc4c(N5CC6CCC(C5)N6)nc(OCC56CCCN5CC(F)C6)nc4c3F)c12 (configuration not stated) + COc1c(OCCCN2CCOCC2)ccc2c3n(c(=NC(=O)c4cnc(N)nc4)nc12)CCN3	%	9.36
C#Cc1c(F)ccc2cc(O)cc(-c3ncc4c(N5CC6CCC(C5)N6)nc(OCC56CCCN5CC(F)C6)nc4c3F)c12 (configuration not stated) + CC(Nc1ccc2c(c1)OCCn1cc(N3C(=O)OCC3C(F)F)nc1-2)C(N)=O	%	12.6
CCCS(=O)(=O)Nc1ccc(F)c(C(=O)c2c[nH]c3ncc(-c4ccc(Cl)cc4)cc23)c1F + CC(Nc1ccc2c(c1)OCCn1cc(N3C(=O)OCC3C(F)F)nc1-2)C(N)=O	%	77.4
Cn1ncc(Cl)c1-c1cc(C(=O)NC(CN)Cc2cccc(F)c2)sc1Cl (configuration not stated) + CC(Nc1ccc2c(c1)OCCn1cc(N3C(=O)OCC3C(F)F)nc1-2)C(N)=O	%	39.2
C[C@@H](NC(=O)c1ncnc(N)c1Cl)c1ncc(C(=O)Nc2cc(C(F)(F)F)c(Cl)cn2)s1 + COc1c(OCCCN2CCOCC2)ccc2c3n(c(=NC(=O)c4cnc(N)nc4)nc12)CCN3	%	108
